Test: CCTE_Deisenroth_DEVTOX-GLR_legacy_CellCount: (Legacy) Viability Assessment in CCTE's DevTox GLR-Endo Assay, Deisenroth Lab (AID 2284331)
Conditions: actives raise or lower the signal
The source made the active and inactive calls. How the source made its calls: active means hit-call score of the fitted dose curve at least 0.9, where 1 is the maximum; inactive means score below 0.9.

[
  {
    "structure": "NC(=O)N1c2ccccc2C=Cc2ccccc21",
    "AC50": "67 µM (active)"
  },
  {
    "structure": "Nc1ccn([C@@H]2O[C@H](CO)[C@@H](O)[C@@H]2O)c(=O)n1",
    "AC50": "0.259 µM (active)"
  },
  {
    "structure": "NNC(=O)c1ccncc1",
    "AC50": "inactive"
  },
  {
    "structure": "CCCC(CCC)C(=O)O",
    "AC50": "inactive"
  }
]

----------
Molecular target: Cytochrome P450 2C19 (Homo sapiens) (UniProt P33261)
Experiment: NVS_ADME_hCYP2C19: NovaScreen (NVS) CYP450-related Enzyme Activity (ADME) Assay for human CYP2C19 (AID 2283113)
Procedure: NVS_ADME_hCYP2C19 is a biochemical, single-readout assay that uses extracted gene-proteins from insect cells in a cell-free assay. Measurements were taken 1 hour after chemical dosing in a 96-well plate.NVS_ADME_hCYP2C19 is one of one assay component(s) measured or calculated from the NVS_ADME_hCYP2C19 assay. […] This assay endpoint, NVS_ADME_hCYP2C19, was analyzed in the positive analysis fitting direction relative to Acetonitrile as the negative control and baseline of activity. […]
Inconclusive results are not listed. Calls of active or inactive are those of the source. The calls were made as follows: active = hit-call score of the fitted dose curve at least 0.9, where 1 is the maximum; inconclusive = response in the unintended direction; inactive = score below 0.9.
Labels: active, inactive

[
  {
    "structure": "CC(C)C(=O)Nc1ccc([N+](=O)[O-])c(C(F)(F)F)c1",
    "assigned-class": "active"
  },
  {
    "structure": "CCCC(CCC)C(=O)O",
    "assigned-class": "active"
  },
  {
    "structure": "c1ccc(C(O[C@@H]2CCCN(CCc3ccc4c(c3)OCO4)C2)c2ccccc2)cc1",
    "assigned-class": "active"
  },
  {
    "structure": "CCCOc1ccc(S(=O)(=O)N2CCN(CC)CC2)cc1-c1nc2c(CC)n(Cc3ccccn3)nc2c(=O)[nH]1",
    "assigned-class": "active"
  },
  {
    "structure": "O=C(NO)C1(NS(=O)(=O)c2ccc(Oc3ccc(F)cc3)cc2)CCOCC1",
    "assigned-class": "inactive"
  }
]

----------
Read-out: Macrophage colony-stimulating factor (MCSF), CSF1 (gene 1435)
Experiment: BSK_hDFCGF_MCSF: BioMAP Diversity Plus: hDFCGF Assay for Macrophage colony-stimulating factor (MCSF) Biomarker Activity (AID 2283060)
Settings: primary human foreskin fibroblasts; actives raise or lower the signal
Active and inactive are the calls of the source. How the source made its calls: active means hit-call score of the fitted dose curve at least 0.9, where 1 is the maximum; inactive means score below 0.9.

[
  {
    "compound": "NNC(=O)c1ccncc1",
    "AC50": "inactive"
  },
  {
    "compound": "NC(=O)N1c2ccccc2C=Cc2ccccc21",
    "AC50": "inactive"
  },
  {
    "compound": "CNC(C)=O",
    "AC50": "inactive"
  },
  {
    "compound": "NC(=O)NN=Cc1ccc([N+](=O)[O-])o1",
    "AC50": "inactive"
  },
  {
    "compound": "Cc1cccc(O)c1C",
    "AC50": "inactive"
  },
  {
    "compound": "CCCCC(CC)C(=O)OCCOCCOCCOC(=O)C(CC)CCCC (stereo not drawn)",
    "AC50": "10.7 µM (active)"
  },
  {
    "compound": "FC(F)C(F)(F)COCC1CO1 (stereo not drawn)",
    "AC50": "inactive"
  },
  {
    "compound": "OC(Cn1cncn1)(Cn1cncn1)c1ccc(F)cc1F",
    "AC50": "inactive"
  },
  {
    "compound": "O=C(O)c1cccc(C(=O)O)c1",
    "AC50": "inactive"
  },
  {
    "compound": "FC(F)=C(F)C(F)(F)C(F)(F)C(F)(F)C(F)(F)C(F)(F)C(F)(F)F",
    "AC50": "inactive"
  },
  {
    "compound": "c1ccc2ncccc2c1",
    "AC50": "inactive"
  },
  {
    "compound": "CCCCCCCCCCCCCCCCOS(=O)(=O)O",
    "AC50": "10.2 µM (active)"
  },
  {
    "compound": "CC[C@H](C)C(=O)O[C@H]1C[C@H](O)C=C2C=C[C@H](C)[C@H](CC[C@@H](O)C[C@@H](O)CC(=O)O)[C@H]21",
    "AC50": "inactive"
  }
]

----------
Molecular target: human Dopamine Transporter (DAT), SLC6A3 (gene 6531) (UniProt Q01959)
Sequence (Q01959 whole entry, looked up): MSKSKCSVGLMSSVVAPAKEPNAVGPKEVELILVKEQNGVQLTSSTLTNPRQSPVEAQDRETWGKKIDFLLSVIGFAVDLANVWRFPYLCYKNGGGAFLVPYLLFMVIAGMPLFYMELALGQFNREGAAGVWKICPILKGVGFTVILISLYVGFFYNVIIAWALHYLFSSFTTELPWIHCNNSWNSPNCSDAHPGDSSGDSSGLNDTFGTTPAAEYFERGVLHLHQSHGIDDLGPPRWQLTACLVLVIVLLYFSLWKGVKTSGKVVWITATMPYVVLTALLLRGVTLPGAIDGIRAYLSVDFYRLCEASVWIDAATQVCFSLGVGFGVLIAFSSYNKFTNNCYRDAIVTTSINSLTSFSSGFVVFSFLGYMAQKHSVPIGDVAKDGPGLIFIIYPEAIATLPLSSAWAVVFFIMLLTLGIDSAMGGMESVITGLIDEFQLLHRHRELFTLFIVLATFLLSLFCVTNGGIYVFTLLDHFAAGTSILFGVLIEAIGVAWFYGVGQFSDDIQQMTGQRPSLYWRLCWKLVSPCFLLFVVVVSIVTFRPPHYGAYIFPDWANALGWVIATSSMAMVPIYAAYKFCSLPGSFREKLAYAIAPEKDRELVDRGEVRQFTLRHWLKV
Assay: NVS_TR_hDAT: NovaScreen (NVS) Transporter Assay for human Dopamine Transporter (DAT) (AID 2283374);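 further: activity means loss of bound radioligand signal relative to DMSO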
Results filed as inconclusive are left out. Activity calls are given as the source filed them. The calls were made as follows: active = hit-call score of the fitted dose curve at least 0.9, where 1 is the maximum; inconclusive = response in the unintended direction; inactive = score below 0.9.
Labels: active, inactive

[
  {
    "compound": "OCc1ccccc1",
    "assigned-class": "inactive"
  },
  {
    "compound": "c1ccc(C(O[C@@H]2CCCN(CCc3ccc4c(c3)OCO4)C2)c2ccccc2)cc1",
    "assigned-class": "active"
  },
  {
    "compound": "O=C(NO)C1(NS(=O)(=O)c2ccc(Oc3ccc(F)cc3)cc2)CCOCC1",
    "assigned-class": "active"
  },
  {
    "compound": "CC[C@H](C)C(=O)O[C@H]1C[C@H](O)C=C2C=C[C@H](C)[C@H](CC[C@@H](O)C[C@@H](O)CC(=O)O)[C@H]21",
    "assigned-class": "inactive"
  },
  {
    "compound": "CCCOc1ccc(S(=O)(=O)N2CCN(CC)CC2)cc1-c1nc2c(CC)n(Cc3ccccn3)nc2c(=O)[nH]1",
    "assigned-class": "active"
  },
  {
    "compound": "OC(CCl)CCl",
    "assigned-class": "inactive"
  },
  {
    "compound": "COc1cc(C(C)C)c2c(c1)S(=O)(=O)N(COc1cc(=O)n3cccc(OCCN4CCCCC4)c3n1)C2=O",
    "assigned-class": "active"
  },
  {
    "compound": "CC(C)c1nnc2ccc(-c3ocnc3-c3cc(F)ccc3F)cn12",
    "assigned-class": "inactive"
  },
  {
    "compound": "CCCCCCCCCC",
    "assigned-class": "inactive"
  },
  {
    "compound": "OCCOCCOCCO",
    "assigned-class": "active"
  },
  {
    "compound": "CCCCC(CC)C(=O)OCCOCCOCCOC(=O)C(CC)CCCC (stereo unspecified)",
    "assigned-class": "inactive"
  }
]

----------
Target: Estrogen receptor (Homo sapiens)
Test: OT_ERa_GFPERaERE_0480: Odyssey Thera (OT) 8-hour HeLa Transcription Induction Assay for Estrogen Receptor (AID 2283381)
Active and inactive are the calls of the source. How the source made its calls: active means hit-call score of the fitted dose curve at least 0.9, where 1 is the maximum; inactive means score below 0.9.
property-label: outcome

[
  {
    "molecule": "CC(C)C(=O)Nc1ccc([N+](=O)[O-])c(C(F)(F)F)c1",
    "target-of-assay": "Estrogen receptor (Homo sapiens)",
    "property-label": "outcome",
    "test-value": "inactive"
  },
  {
    "molecule": "NC(=O)N(O)[C@@H]1COc2cc(OCc3ccccc3)ccc21",
    "target-of-assay": "Estrogen receptor (Homo sapiens)",
    "property-label": "outcome",
    "test-value": "inactive"
  },
  {
    "molecule": "NC(N)=O",
    "target-of-assay": "Estrogen receptor (Homo sapiens)",
    "property-label": "outcome",
    "test-value": "inactive"
  },
  {
    "molecule": "CCCCCCCC1CCC(=O)O1 (stereo not drawn)",
    "target-of-assay": "Estrogen receptor (Homo sapiens)",
    "property-label": "outcome",
    "test-value": "inactive"
  },
  {
    "molecule": "C[C@@H](Oc1ccc(CNC(=O)c2cccnc2Oc2ccc3c(c2)OCO3)c(F)c1)C(=O)O",
    "target-of-assay": "Estrogen receptor (Homo sapiens)",
    "property-label": "outcome",
    "test-value": "inactive"
  },
  {
    "molecule": "O=C(O)[C@H](O)[C@@H](O)C(=O)O",
    "target-of-assay": "Estrogen receptor (Homo sapiens)",
    "property-label": "outcome",
    "test-value": "inactive"
  },
  {
    "molecule": "NC(=O)N1c2ccccc2C=Cc2ccccc21",
    "target-of-assay": "Estrogen receptor (Homo sapiens)",
    "property-label": "outcome",
    "test-value": "inactive"
  },
  {
    "molecule": "Cc1ccc(S(=O)(=O)NC(=O)NN2CCCCCC2)cc1",
    "target-of-assay": "Estrogen receptor (Homo sapiens)",
    "property-label": "outcome",
    "test-value": "inactive"
  },
  {
    "molecule": "CC(=O)c1ccccc1",
    "target-of-assay": "Estrogen receptor (Homo sapiens)",
    "property-label": "outcome",
    "test-value": "inactive"
  },
  {
    "molecule": "CCOc1ccc2[nH]cc(C(=O)NCc3ccccc3)c(=O)c2n1",
    "target-of-assay": "Estrogen receptor (Homo sapiens)",
    "property-label": "outcome",
    "test-value": "inactive"
  },
  {
    "molecule": "CCCCCCCCCC",
    "target-of-assay": "Estrogen receptor (Homo sapiens)",
    "property-label": "outcome",
    "test-value": "inactive"
  },
  {
    "molecule": "OC(CCl)CCl",
    "target-of-assay": "Estrogen receptor (Homo sapiens)",
    "property-label": "outcome",
    "test-value": "inactive"
  },
  {
    "molecule": "CCOC(N)=O",
    "target-of-assay": "Estrogen receptor (Homo sapiens)",
    "property-label": "outcome",
    "test-value": "inactive"
  },
  {
    "molecule": "c1ccc2c(c1)-c1cccc3c1c-2cc1ccccc13",
    "target-of-assay": "Estrogen receptor (Homo sapiens)",
    "property-label": "outcome",
    "test-value": "inactive"
  },
  {
    "molecule": "c1ccc2cc3ccccc3cc2c1",
    "target-of-assay": "Estrogen receptor (Homo sapiens)",
    "property-label": "outcome",
    "test-value": "inactive"
  },
  {
    "molecule": "O=C(O)c1ccc2c(c1)nc(C(=O)NC1CCN(C3CC3)CC1)n2Cc1cc(-c2ccc(Cl)s2)on1",
    "target-of-assay": "Estrogen receptor (Homo sapiens)",
    "property-label": "outcome",
    "test-value": "inactive"
  },
  {
    "molecule": "O=C(NO)C1(NS(=O)(=O)c2ccc(Oc3ccc(F)cc3)cc2)CCOCC1",
    "target-of-assay": "Estrogen receptor (Homo sapiens)",
    "property-label": "outcome",
    "test-value": "inactive"
  },
  {
    "molecule": "O=C(O)c1cccc(C(=O)O)c1",
    "target-of-assay": "Estrogen receptor (Homo sapiens)",
    "property-label": "outcome",
    "test-value": "inactive"
  },
  {
    "molecule": "c1ccc2ncccc2c1",
    "target-of-assay": "Estrogen receptor (Homo sapiens)",
    "property-label": "outcome",
    "test-value": "inactive"
  },
  {
    "molecule": "O=C(O)c1cccc(C[C@@H]2COc3ccc(OCc4nc5cc(F)ccc5s4)cc3[C@@H]2O)c1",
    "target-of-assay": "Estrogen receptor (Homo sapiens)",
    "property-label": "outcome",
    "test-value": "inactive"
  },
  {
    "molecule": "Cc1ncc([C@@H](CCCCCCc2ccc3c(n2)NCCC3)CC(=O)O)cn1",
    "target-of-assay": "Estrogen receptor (Homo sapiens)",
    "property-label": "outcome",
    "test-value": "inactive"
  },
  {
    "molecule": "Cc1nc(-c2ccccn2)ncc1C(=O)Nn1cc(C)c2cc(F)ccc21",
    "target-of-assay": "Estrogen receptor (Homo sapiens)",
    "property-label": "outcome",
    "test-value": "inactive"
  },
  {
    "molecule": "C[C@]12C=CC(=O)C=C1CC[C@H]1[C@@H]3C[C@@H](O)[C@](O)(C(=O)CO)[C@@]3(C)C[C@H](O)[C@@]12F",
    "target-of-assay": "Estrogen receptor (Homo sapiens)",
    "property-label": "outcome",
    "test-value": "inactive"
  },
  {
    "molecule": "O=S(=O)(O)c1ccc(N=Nc2c(O)ccc3cc(S(=O)(=O)O)ccc23)cc1",
    "target-of-assay": "Estrogen receptor (Homo sapiens)",
    "property-label": "outcome",
    "test-value": "inactive"
  },
  {
    "molecule": "CCn1nc(C)c2c1C(=O)NCC(c1ccc(O)cc1)=N2",
    "target-of-assay": "Estrogen receptor (Homo sapiens)",
    "property-label": "outcome",
    "test-value": "inactive"
  },
  {
    "molecule": "CCCCCCCC/C=C\\CCCCCCCC(=O)OC[C@@H](O)[C@H]1OC[C@H](O)[C@H]1O",
    "target-of-assay": "Estrogen receptor (Homo sapiens)",
    "property-label": "outcome",
    "test-value": "inactive"
  },
  {
    "molecule": "OCC(CO)(CO)CO",
    "target-of-assay": "Estrogen receptor (Homo sapiens)",
    "property-label": "outcome",
    "test-value": "inactive"
  },
  {
    "molecule": "OCCOCCOCCO",
    "target-of-assay": "Estrogen receptor (Homo sapiens)",
    "property-label": "outcome",
    "test-value": "inactive"
  },
  {
    "molecule": "CCCCN1C(=O)[C@@H]([C@H](O)C2CCCCC2)NC(=O)C12CCN(Cc1ccc(Oc3ccc(C(=O)O)cc3)cc1)CC2",
    "target-of-assay": "Estrogen receptor (Homo sapiens)",
    "property-label": "outcome",
    "test-value": "inactive"
  },
  {
    "molecule": "CCCCCCOC(=O)CC(CC(=O)OCCCCCC)(OC(=O)CCC)C(=O)OCCCCCC",
    "target-of-assay": "Estrogen receptor (Homo sapiens)",
    "property-label": "outcome",
    "test-value": "inactive"
  },
  {
    "molecule": "CCCCC(CC)C(=O)OCCOCCOCCOC(=O)C(CC)CCCC (stereo not drawn)",
    "target-of-assay": "Estrogen receptor (Homo sapiens)",
    "property-label": "outcome",
    "test-value": "inactive"
  },
  {
    "molecule": "C=CN1CCCC1=O",
    "target-of-assay": "Estrogen receptor (Homo sapiens)",
    "property-label": "outcome",
    "test-value": "inactive"
  },
  {
    "molecule": "O=c1[nH]cnc2c1ncn2[C@H]1CC[C@@H](CO)O1",
    "target-of-assay": "Estrogen receptor (Homo sapiens)",
    "property-label": "outcome",
    "test-value": "inactive"
  }
]

Cited source for all entries: PubChem BioAssay (EPA / NIEHS)
